molecular target: D(3) dopamine receptor (Homo sapiens); test: Displacement of [3H]methyl-spiperone from recombinant human D3 receptor expressed in CHO cell membranes after 60 mins by scintillation counting method
Sequence (P35462 whole entry): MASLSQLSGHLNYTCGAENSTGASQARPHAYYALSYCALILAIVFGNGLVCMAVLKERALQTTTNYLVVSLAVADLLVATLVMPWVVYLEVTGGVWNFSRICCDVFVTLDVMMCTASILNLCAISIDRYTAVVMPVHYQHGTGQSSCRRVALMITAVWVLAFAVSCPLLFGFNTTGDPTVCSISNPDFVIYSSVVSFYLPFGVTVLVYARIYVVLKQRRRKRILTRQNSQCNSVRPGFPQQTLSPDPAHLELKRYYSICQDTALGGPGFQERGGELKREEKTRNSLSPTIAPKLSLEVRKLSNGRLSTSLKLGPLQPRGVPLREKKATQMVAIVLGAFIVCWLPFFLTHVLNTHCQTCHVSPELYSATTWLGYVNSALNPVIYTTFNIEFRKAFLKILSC
Please provide measured Ki for the entries that follow.

Value of measured Ki for the entry CS(=O)(=O)N[C@H]1CC[C@H](CCN2CCN(c3nsc4ccccc34)CC2)CC1 : 0.095 nM

Per the records, this compound ( CCOC(=O)N[C@H]1CC[C@@H](CCN2CCN(c3nsc4ccccc34)CC2)CC1 ) has Ki equal to 2 nM

// N[C@H]1CC[C@H](CCN2CCN(c3nsc4ccccc34)CC2)CC1 : Ki value = 9.6 nM

Form field Ki, entry O=C(c1ccco1)N1CCC(CCN2CCN(c3nsc4ccccc34)CC2)CC1 : 7.3 nM

The compound listed as Nc1ccc2c(N3CCN(CC[C@H]4CC[C@H](NC(=O)c5ccco5)CC4)CC3)nsc2c1 has a reported Ki of 1.1 nM

// CCN(C)C(=O)N[C@H]1CC[C@H](CCN2CCN(c3nsc4ccccc34)CC2)CC1 : Ki value = 0.78 nM

For reference, reported Ki for CCC(=O)N[C@H]1CC[C@H](CCN2CCN(c3nsc4ccccc34)CC2)CC1 stands at 0.052 nM

The recorded Ki for entry CCCS(=O)(=O)N[C@H]1CC[C@H](CCN2CCN(c3nsc4ccccc34)CC2)CC1 equals 0.22 nM

The compound listed as O=C(N[C@H]1CC[C@H](CCN2CCN(c3nsc4ccccc34)CC2)CC1)C1CCCCC1 has a reported Ki of 0.19 nM

# Ki (compound: COCC(=O)N[C@H]1CC[C@H](CCN2CCN(c3nsc4ccccc34)CC2)CC1 ) is 0.31 nM

So, CN(C)C(=O)N[C@H]1CC[C@H](CCN2CCN(c3nsc4ccccc34)CC2)CC1 ? Its Ki was 0.4 nM

The compound listed as O=C(N[C@H]1CC[C@H](CCN2CCN(c3nsc4ccccc34)CC2)CC1)C1CC1 shows Ki equal to 0.21 nM

Recorded result, O=C(N[C@H]1CC[C@H](CCN2CCN(c3nsc4ccccc34)CC2)CC1)c1ccco1 , Ki: 0.13 nM

compound O=C(N[C@H]1CC[C@H](CCN2CCN(c3nsc4ccccc34)CC2)CC1)c1cccs1 , Ki observed: 0.056 nM

The value of Ki measured for the compound O=C(N[C@H]1CC[C@H](CCN2CCN(c3nsc4ccccc34)CC2)CC1)N1CCOCC1 turned out to be 1.6 nM

Item: O=C(Nc1ccccc1)N[C@H]1CC[C@H](CCN2CCN(c3nsc4ccccc34)CC2)CC1 | Ki: 0.043 nM

So, O=C(N[C@H]1CC[C@H](CCN2CCN(c3nsc4ccccc34)CC2)CC1)c1ccccc1 ? Its Ki was 0.047 nM

Sure, the documented Ki for CC(C)N(C(=O)N[C@H]1CC[C@H](CCN2CCN(c3nsc4ccccc34)CC2)CC1)C(C)C is 1.4 nM

GET /value?item= O=C(NCc1ccccc1)N[C@H]1CC[C@H](CCN2CCN(c3nsc4ccccc34)CC2)CC1 &field=Ki returns 0.18 nM

Quick note, Ki for CCOC(=O)N[C@H]1CC[C@H](CCN2CCN(c3nsc4ccccc34)CC2)CC1 landed at 0.058 nM

Ki reading for Cc1ccc(S(=O)(=O)N[C@H]2CC[C@H](CCN3CCN(c4nsc5ccccc45)CC3)CC2)cc1 : 0.062 nM

Record O=C(N[C@H]1CC[C@H](CCN2CCN(c3nsc4ccccc34)CC2)CC1)C(F)(F)F , field Ki: 0.27 nM

Lab note: measured Ki of CN(C(=O)N[C@H]1CC[C@H](CCN2CCN(c3nsc4ccccc34)CC2)CC1)c1ccccc1 was 1.2 nM

The compound identified as O=C(NC[C@H]1CC[C@H](CN2CCN(c3nsc4ccccc34)CC2)CC1)c1ccco1 registered its Ki at 1 nM

Sample CN([C@H]1CC[C@H](CCN2CCN(c3nsc4ccccc34)CC2)CC1)S(=O)(=O)c1cccs1 ; Ki observed: 0.046 nM

# Ki (compound: O=C(N[C@H]1CC[C@H](CCN2CCN(c3nsc4cc([N+](=O)[O-])ccc34)CC2)CC1)c1ccco1 ) is 0.24 nM

Per the record, O=C(N[C@H]1CC[C@H](CCN2CCN(c3nsc4ccccc34)CC2)CC1)c1cccnc1 has Ki of 0.09 nM

Ki recorded for this compound, CCOC(=O)N1CCC(CCN2CCN(c3nsc4ccccc34)CC2)CC1 , is 8.7 nM

Value of Ki reported for the compound O=S(=O)(N[C@H]1CC[C@H](CCN2CCN(c3nsc4ccccc34)CC2)CC1)c1cccnc1 is 0.058 nM

So for CCCC(=O)N[C@H]1CC[C@H](CCN2CCN(c3nsc4ccccc34)CC2)CC1 , the logged Ki turned out to be 0.14 nM

Please fill in: Ki reported for O=C(Nc1cccnc1)N[C@H]1CC[C@H](CCN2CCN(c3nsc4ccccc34)CC2)CC1 = 0.055 nM

// CC(=O)N[C@H]1CC[C@H](CCN2CCN(c3nsc4ccccc34)CC2)CC1 : Ki value = 0.16 nM

Looking up O=C(N[C@H]1CC[C@@H](CCN2CCN(c3nsc4ccccc34)CC2)CC1)c1ccco1 , I see its Ki listed as 2.3 nM

* * *

target: 5-hydroxytryptamine receptor 1A (Homo sapiens); experiment: Displacement of [3H]8-OH-DPAT from recombinant human 5-HT1A receptor expressed in HEK293 cell membranes after 60 mins by scintillation counting method
Sequence (P08908 whole entry): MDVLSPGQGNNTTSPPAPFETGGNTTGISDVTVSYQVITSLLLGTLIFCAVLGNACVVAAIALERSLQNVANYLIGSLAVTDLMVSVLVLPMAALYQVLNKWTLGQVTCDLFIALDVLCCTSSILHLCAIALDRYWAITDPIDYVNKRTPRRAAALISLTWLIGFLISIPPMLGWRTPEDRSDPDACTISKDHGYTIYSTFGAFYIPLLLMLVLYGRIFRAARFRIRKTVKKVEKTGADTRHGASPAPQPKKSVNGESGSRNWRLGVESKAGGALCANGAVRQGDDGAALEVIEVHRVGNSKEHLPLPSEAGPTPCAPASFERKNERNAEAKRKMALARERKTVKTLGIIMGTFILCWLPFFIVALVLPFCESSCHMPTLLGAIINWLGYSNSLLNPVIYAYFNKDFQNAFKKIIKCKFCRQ
pKi: −log10 of the molar value.
Binary call on pKi: Condition met from 9 upward, Condition not met beneath that.

input: Given the entry CN(C(=O)N[C@H]1CC[C@H](CCN2CCN(c3nsc4ccccc34)CC2)CC1)c1ccccc1 , answer whether its pKi meets or surpasses 9.
output: Condition not met

input: Does pKi meet or surpass 9 for O=C(Nc1cccnc1)N[C@H]1CC[C@H](CCN2CCN(c3nsc4ccccc34)CC2)CC1 ?
output: Condition not met

input: State whether the measured pKi reaches 9, counting equality as reaching it, for CCOC(=O)N[C@H]1CC[C@H](CCN2CCN(c3nsc4ccccc34)CC2)CC1
output: Condition met

* * *

biological target: D(2) dopamine receptor (Homo sapiens, UniProt P14416); experiment: Displacement of [3H]spiperone from recombinant human D2L receptor expressed in CHO cell membranes after 60 mins by scintillation counting method
Sequence (P14416 whole entry): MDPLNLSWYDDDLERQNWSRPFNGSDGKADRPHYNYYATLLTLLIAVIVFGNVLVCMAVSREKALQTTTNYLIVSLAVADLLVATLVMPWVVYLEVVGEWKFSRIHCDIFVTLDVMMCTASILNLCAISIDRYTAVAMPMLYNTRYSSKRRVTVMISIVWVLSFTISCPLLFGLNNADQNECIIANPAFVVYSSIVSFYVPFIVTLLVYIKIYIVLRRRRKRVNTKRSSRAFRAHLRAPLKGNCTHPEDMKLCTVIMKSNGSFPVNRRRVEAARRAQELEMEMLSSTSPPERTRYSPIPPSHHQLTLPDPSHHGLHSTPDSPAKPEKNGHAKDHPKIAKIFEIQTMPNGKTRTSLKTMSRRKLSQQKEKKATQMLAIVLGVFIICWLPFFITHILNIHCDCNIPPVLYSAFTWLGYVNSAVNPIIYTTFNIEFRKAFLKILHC
Consider the following molecules; for each one, report its pKi.
Scale for pKi: -log10 of concentration given in mol/L; no unit attached.

Form: molecule = Nc1ccc2c(N3CCN(CC[C@H]4CC[C@H](NC(=O)c5ccco5)CC4)CC3)nsc2c1 ; pKi = 7.85

Note to self: pKi recorded for O=C(N[C@H]1CC[C@H](CCN2CCN(c3nsc4ccccc34)CC2)CC1)c1ccco1 was 8.54

Input O=C(N[C@H]1CC[C@H](CCN2CCN(c3nsc4ccccc34)CC2)CC1)c1cccnc1 . Output pKi: 9.07

Briefly, pKi measured for N[C@H]1CC[C@H](CCN2CCN(c3nsc4ccccc34)CC2)CC1 : 8.34

Form: molecule = O=C(N[C@H]1CC[C@H](CCN2CCN(c3nsc4ccccc34)CC2)CC1)C1CCCCC1 ; pKi = 9.03

* * *

experiment: Half life in Sprague-Dawley rat brain at 0.5 mg/kg, iv administered as single dose by LC-MS/MS analysis; type: ADME, organism-based
measuredParameter: half-life
I'd appreciate it if you included the unit after the number.

In plain terms, O=C(N[C@H]1CC[C@H](CCN2CCN(c3nsc4ccccc34)CC2)CC1)c1ccco1 has a documented half-life of 15.8 h

* * *

assay: Apparent clearance in Sprague-Dawley rat plasma at 2 mg/kg, po administered as single dose by LC-MS/MS analysis; type: ADME, organism-based; conditions: read-out: CL(app) (converted)
measuredParameter: CL/F
Answer with the number, then the unit.

Form field CL/F, entry O=C(N[C@H]1CC[C@H](CCN2CCN(c3nsc4ccccc34)CC2)CC1)c1ccco1 : 582 mL/min/kg

* * *

target: D(2) dopamine receptor (Homo sapiens); test: Displacement of [3H]spiperone from recombinant human D2L receptor expressed in CHO cell membranes after 60 mins by scintillation counting method
measuredParameter: Ki (nM)
The reply should be a number in nM, with the unit left off.

Ki in this record for CN(C)C(=O)N[C@H]1CC[C@H](CCN2CCN(c3nsc4ccccc34)CC2)CC1 : 0.53

# molecule Cc1ccc(S(=O)(=O)N[C@H]2CC[C@H](CCN3CCN(c4nsc5ccccc45)CC3)CC2)cc1 ; its Ki = 0.42

Entry O=C(N[C@H]1CC[C@H](CCN2CCN(c3nsc4ccccc34)CC2)CC1)C(F)(F)F — recorded Ki = 1.7

Value of Ki reported for the molecule O=C(c1ccco1)N1CCC(CCN2CCN(c3nsc4ccccc34)CC2)CC1 is 15

Query CCOC(=O)N[C@H]1CC[C@@H](CCN2CCN(c3nsc4ccccc34)CC2)CC1 yields Ki of 4

// Ki lookup, molecule = O=C(N[C@H]1CC[C@H](CCN2CCN(c3nsc4ccccc34)CC2)CC1)c1ccccc1 , result: 0.33

Recorded Ki (molecule O=C(N[C@H]1CC[C@H](CCN2CCN(c3nsc4ccccc34)CC2)CC1)N1CCOCC1 ): 2.2

Noted for CC(=O)N[C@H]1CC[C@H](CCN2CCN(c3nsc4ccccc34)CC2)CC1 : its Ki reads 25

The recorded Ki for entry CCOC(=O)N[C@H]1CC[C@H](CCN2CCN(c3nsc4ccccc34)CC2)CC1 equals 0.71

Origin of the recorded values: ChEMBL document CHEMBL3872208
